Origin of measurements: the array DNA melting data of Ke et al. (doi:10.1101/2024.01.08.574731)

- METHOD NOTES: folding enthalpy; higher = less favourable; fluorescence melt of hairpins on a sequencing array, two-state fit
- DETAILS: sodium 0.088 M
OBSERVABLE: folding enthalpy (kcal/mol)
Dear colleague, please return just the value in kcal/mol, with no unit written.

These recorded examples may help you get a feel for the data.
polymer_sequence="GCTCAGCGAAAGCAGCGC ((.(.((....)).).))" observable="folding enthalpy" value_measured=-18
polymer_sequence="GCTCCTGCGAAAGCAAGC (((..(((....))))))" observable="folding enthalpy" value_measured=-9.07

## Task Name the recorded folding enthalpy for GAATAAGCGAAAGCTTTC (((..(((....)))))) .
## Result -9.51

## Task Name the recorded folding enthalpy for GCGGGTGTCCGC ((((....)))) .
## Result -22.8

## Task Name the recorded folding enthalpy for GTCGACGGAAACATCGAC (((((.(....).))))) .
## Result -39.8

## Task Name the recorded folding enthalpy for GCCTTCGAAAGAATAGGC ((((((....)))..))) .
## Result -28.8

## Task Name the recorded folding enthalpy for GTCCCTGCGAAAGCAGAC (((..(((....)))))) .
## Result -7.38

## Task Name the recorded folding enthalpy for GCTCAAGGAAACTTGAAC (.(((((....))))).) .
## Result -15

## Task Name the recorded folding enthalpy for GCGATTTCGAAAGAACGC (((..(((....)))))) .
## Result -24.2
